FYI, the data here is from Sander's compilation of Henry's law constants (doi:10.1016/j.chemosphere.2021.129858).

assay: Henry solubility constant Hcp at 298.15 K (mol/(m3 Pa)); settings: reference: Schwardt et al. (2021)
QUANTITY_NAME: Henry solubility constant Hcp
# answer = number (no unit)

Completed entries (count: 5):
Need Henry solubility constant Hcp, item ClCC(Cl)Cl [1,1,2-trichloroethane]
0.0073

Which Henry solubility constant Hcp value belongs to C=CCl [chloroethene] ?
0.00039

# Henry solubility constant Hcp lookup, item ClCC(Cl)(Cl)Cl [1,1,1,2-tetrachloroethane]
0.0045

May I ask what Henry solubility constant Hcp has been recorded for ClC(Cl)=C(Cl)Cl [tetrachloroethene] ?
0.00058

Would you mind telling me what Henry solubility constant Hcp value was observed for Cc1ccc(C)cc1 [1,4-dimethylbenzene] ?
0.001

Others:
For CCc1ccccc1 [ethylbenzene] , what is its reported Henry solubility constant Hcp?
0.0013

For C=C(Cl)Cl [1,1-dichloroethene] , what is its reported Henry solubility constant Hcp?
0.0004

Consider the compound Clc1ccccc1 [chlorobenzene] and give its measured Henry solubility constant Hcp.
0.002

Item ClC=C(Cl)Cl [trichloroethene] has what recorded Henry solubility constant Hcp?
0.001
